Value source: the RNAGym collection of RNA variant scans (doi:10.1093/molbev/msab373)

B1: Azoarcus group I ribozyme (parent)
chain: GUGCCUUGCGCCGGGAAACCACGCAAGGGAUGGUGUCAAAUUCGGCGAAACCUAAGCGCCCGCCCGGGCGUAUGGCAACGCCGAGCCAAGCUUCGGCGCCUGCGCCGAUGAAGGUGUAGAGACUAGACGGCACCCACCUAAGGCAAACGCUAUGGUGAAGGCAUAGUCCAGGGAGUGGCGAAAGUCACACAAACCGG

- Variants of: B1
- run.description: reverse-splicing fitness (ratio to wild type); higher = more active; in vitro selection; Mg2+ level not given
readout.name: reverse-splicing fitness
Answer field: number only, no words.

>  <variant.notation>
C82U A111U C150U C169U U176C

>  <reverse-splicing fitness>
0.0152

$$$$

Prompt line: I am curious: what reverse-splicing fitness value has been reported for C82A A120C A145G C150U C169U U176A ?
Response line: 0.0157

Prompt line: Again, but for A111U A120C A145G C169U
Response line: 0.172

Prompt line: Again, but for A111C A120C C150U C169G U176A
Response line: 0.0124

Prompt line: Again, but for A111G A145G C150G C169U U176A
Response line: 0.011

Prompt line: Again, but for C82A A111U A145C U176C
Response line: 0.126

Prompt line: Again, but for C82A A111U A145U C169U U176A
Response line: 0.0142
